Taken from patent US20240116985A1.

- tgt: full-length beta-Catenin (Uniprot ID P35222) (Homo sapiens, UniProt P35222)
- Construct: 10 nM full-length beta-Catenin (Uniprot ID P35222)
- Sequence (P35222 whole entry): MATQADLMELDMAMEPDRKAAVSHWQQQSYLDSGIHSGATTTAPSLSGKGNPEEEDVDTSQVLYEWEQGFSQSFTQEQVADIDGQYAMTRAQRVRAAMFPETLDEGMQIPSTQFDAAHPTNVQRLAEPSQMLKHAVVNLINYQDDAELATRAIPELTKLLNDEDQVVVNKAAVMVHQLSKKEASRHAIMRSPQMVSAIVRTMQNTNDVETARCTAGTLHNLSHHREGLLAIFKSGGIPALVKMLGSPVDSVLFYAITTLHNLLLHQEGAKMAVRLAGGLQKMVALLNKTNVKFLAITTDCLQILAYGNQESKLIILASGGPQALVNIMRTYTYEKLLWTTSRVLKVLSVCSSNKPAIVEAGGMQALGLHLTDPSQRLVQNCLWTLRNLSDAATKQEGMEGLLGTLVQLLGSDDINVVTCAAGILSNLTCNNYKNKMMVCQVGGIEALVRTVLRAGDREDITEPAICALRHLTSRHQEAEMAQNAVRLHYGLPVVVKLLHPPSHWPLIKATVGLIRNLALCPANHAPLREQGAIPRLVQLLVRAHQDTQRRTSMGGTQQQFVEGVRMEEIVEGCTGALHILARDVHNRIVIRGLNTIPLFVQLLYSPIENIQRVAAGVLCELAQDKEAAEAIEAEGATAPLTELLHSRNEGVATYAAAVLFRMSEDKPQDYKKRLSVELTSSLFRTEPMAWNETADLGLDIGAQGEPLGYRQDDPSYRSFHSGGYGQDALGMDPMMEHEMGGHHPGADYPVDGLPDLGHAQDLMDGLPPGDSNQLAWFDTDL
- experimentalProtocol: Fluorescence polarization IC50 (beta-catenin / 5FAM-TCF4 10-53 competition)
- Type: binding
- condition: read-out: FP EC50
pIC50 reference
By convention, pIC50 is the negative base-10 log of a molar concentration.

{"compound": "COc1ccccc1C[C@H](NC(=O)[C@]1(C)CCCCCCC=CCCCC2(CCCC=CC[C@]3(CCCN3C(C)=O)C(=O)N[C@@H](CC(=O)O)C(=O)N[C@@H](C)C(=O)N2)C(=O)N[C@@H](CC(=O)O)C(=O)N[C@@H](CCC(=O)O)C(=O)N[C@@H](C)C(=O)N[C@@H](C)C(=O)N[C@@H](Cc2ccccc2)C(=O)N[C@@H](CCC(N)=O)C(=O)N1)C(=O)N[C@@H](Cc1csc2ccccc12)C(=O)N[C@@H](CCC(N)=O)C(N)=O (some centres unmarked) [I-525]", "pIC50": 6.71}

Switching to the query record.
Query CC[C@H](C)[C@@H]1NC(=O)C[C@H](C(=O)O)NC(=O)[C@]2(CC=CCCCC3(CCCC=CCCCCCC[C@@](C)(C(=O)N[C@@H](Cc4ccccc4)C(=O)N[C@@H](Cc4csc5ccccc45)C(=O)N[C@@H](CCC(N)=O)C(N)=O)NC(=O)[C@H](CCC(N)=O)NC(=O)[C@H](Cc4ccccc4)NC(=O)[C@H](C)NC(=O)[C@H](C)NC(=O)[C@H](CCC(=O)O)NC(=O)[C@H](CC(=O)O)NC3=O)NC1=O)CCCN2C(C)=O (some centres unmarked) [I-668] yields pIC50 of 6.17

====

- tgt: full-length beta-Catenin (Uniprot ID P35222) (Homo sapiens)
- Construct: 10 nM full-length beta-Catenin (Uniprot ID P35222)
- experimentalProtocol: Fluorescence polarization IC50 (beta-catenin / 5FAM-TCF4 10-53 competition)
- Type: binding
- condition: read-out: FP EC50
pIC50 reference
By convention, pIC50 is the negative base-10 log of a molar concentration.

Result for CC[C@H](C)[C@@H]1NC(=O)[C@H](CC(=O)O)NC(=O)[C@]2(CC=CCCCC3(CCCC=CCCCCCC[C@@](C)(C(=O)N[C@@H](Cc4ccccc4)C(=O)N[C@@H](Cc4csc5ccccc45)C(=O)N[C@@H](CCC(N)=O)C(N)=O)NC(=O)[C@H](CCC(N)=O)NC(=O)[C@H](Cc4ccccc4)NC(=O)[C@H](CC(C)C)NC(=O)[C@H](C)NC(=O)[C@H](CCC(=O)O)NC(=O)[C@H](CC(=O)O)NC3=O)NC1=O)CCCN2C(C)=O (some centres unmarked) [I-658] , tested on full-length beta-Catenin (Uniprot ID P35222) (Homo sapiens), pIC50: 6.26

Result for CC[C@H](C)[C@@H]1NC(=O)[C@H](CC(=O)O)NC(=O)[C@]2(CC=CCCCC3(CCCC=CCCCCCC[C@@](C)(C(=O)N[C@@H](Cc4ccccc4)C(=O)N[C@@H](Cc4csc5ccccc45)C(=O)N[C@@H](Cc4c[nH]c5ccccc45)C(N)=O)NC(=O)[C@H](CCC(N)=O)NC(=O)[C@H](Cc4ccccc4)NC(=O)[C@H](C)NC(=O)[C@H](C)NC(=O)[C@H](CCC(=O)O)NC(=O)[C@H](CC(=O)O)NC3=O)NC1=O)CCCN2C(C)=O (some centres unmarked) [I-644] , tested on full-length beta-Catenin (Uniprot ID P35222) (Homo sapiens), pIC50: 6.09

Result for CC[C@H](C)[C@@H]1NC(=O)[C@H](CC(=O)O)NC(=O)[C@]2(CC=CCCCC3(CCCC=CCCCCCC[C@@](C)(C(=O)N[C@@H](Cc4ccccc4)C(=O)N[C@@H](Cc4csc5ccccc45)C(=O)N[C@@H](CCC(N)=O)C(N)=O)NC(=O)[C@H](CCC(N)=O)NC(=O)[C@H](Cc4ccccc4)NC(=O)[C@H](C)NC(=O)[C@H](C)NC(=O)[C@H](CN(CC)CC(=O)O)NC(=O)[C@H](CC(=O)O)NC3=O)NC1=O)CCCN2C(C)=O (some centres unmarked) [I-608] , tested on full-length beta-Catenin (Uniprot ID P35222) (Homo sapiens), pIC50: 6.68

Result for CC[C@H](C)[C@@H]1NC(=O)[C@H](CC(=O)O)NC(=O)[C@]2(CC=CCCCC3(CCCC=CCCCCCC[C@@](C)(C(=O)N[C@@H](Cc4ccccc4)C(=O)N[C@@H](Cc4csc5ccccc45)C(=O)N[C@@H](Cc4c[nH]cn4)C(N)=O)NC(=O)[C@H](CC(N)=O)NC(=O)[C@H](Cc4ccccc4)NC(=O)[C@H](C)NC(=O)[C@H](C)NC(=O)[C@H](CC(=O)O)NC(=O)[C@H](CC(=O)O)NC3=O)NC1=O)CCCN2C(C)=O (some centres unmarked) [I-470] , tested on full-length beta-Catenin (Uniprot ID P35222) (Homo sapiens), pIC50: 7.96

Result for CC(=O)N1CCC[C@]12CC=CCCCC1(CCCC=CCCCCCC[C@@](C)(C(=O)N[C@@H](Cc3ccsc3)C(=O)N[C@@H](Cc3csc4ccccc34)C(N)=O)NC(=O)[C@H](CC(N)=O)NC(=O)[C@H](Cc3ccccc3)NC(=O)[C@H](C)NC(=O)[C@H](C)NC(=O)[C@H](CCC(=O)O)NC(=O)[C@H](CC(=O)O)NC1=O)NC(=O)[C@H](CC(C)(C)C)NC(=O)[C@H](CC(=O)O)NC2=O (some centres unmarked) [I-718] , tested on full-length beta-Catenin (Uniprot ID P35222) (Homo sapiens), pIC50: 7.09
